target: feline FcRn complex (FcRn-α subunit and β-microglobulin), biotin labeled (feline); test: SPR, pH 7.4
The following binders are listed with their measured pKd values.
Please express pKd as -log10 of the molar concentration.

BINDER	OUTCOME MEASURE	MEASURED RESULT
feline IgG1a Q311K (antibody, part only; not given: Variable domains, not shown: another chain or arm of the molecule) constant: ASTTAPSVFPLAPSCGTTSGATVALACLVLGYFPEPVTVSWNSGALTSGVHTFPAVLQASGLYSLSSMVTVPSSRWLSDTFTCNVAHPPSNTKVDKTVRKTDHPPGPKPCDCPKCPPPEMLGGPSIFIFPPKPKDTLSISRTPEVTCLVVDLGPDDSDVQITWFVDNTQVYTAKTSPREEQFNSTYRVVSVLPILHKDWLKGKEFKCKVNSKSLPSPIERTISKAKGQPHEPQVYVLPPAQEELSRNKVSVTCLIKSFHPPDIAVEWEITGQPEPENNYRTTPPQLDSDGTYFVYSKLSVDRSHWQRGNTYTCSVSHEALHSHHTQKSLTQSPGK	pKd	5.76

Fill in the blank: the reported pKd of feline IgG1a D312P (antibody, part only; not given: Variable domains, not shown: another chain or arm of the molecule) constant: ASTTAPSVFPLAPSCGTTSGATVALACLVLGYFPEPVTVSWNSGALTSGVHTFPAVLQASGLYSLSSMVTVPSSRWLSDTFTCNVAHPPSNTKVDKTVRKTDHPPGPKPCDCPKCPPPEMLGGPSIFIFPPKPKDTLSISRTPEVTCLVVDLGPDDSDVQITWFVDNTQVYTAKTSPREEQFNSTYRVVSVLPILHQPWLKGKEFKCKVNSKSLPSPIERTISKAKGQPHEPQVYVLPPAQEELSRNKVSVTCLIKSFHPPDIAVEWEITGQPEPENNYRTTPPQLDSDGTYFVYSKLSVDRSHWQRGNTYTCSVSHEALHSHHTQKSLTQSPGK is ____.
5.53
